Target: Mtb ClpP1P2 (Mycobacterium tuberculosis, UniProt P9WPC3+P9WPC5)
Sequence (P9WPC3 16-214, one chain of several): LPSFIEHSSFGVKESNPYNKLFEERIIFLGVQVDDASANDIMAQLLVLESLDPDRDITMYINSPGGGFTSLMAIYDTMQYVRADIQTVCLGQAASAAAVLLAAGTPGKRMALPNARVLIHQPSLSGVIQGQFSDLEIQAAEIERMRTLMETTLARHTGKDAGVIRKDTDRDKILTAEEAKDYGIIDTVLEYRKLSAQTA
Assay: Mtb ClpP1P2 peptidase assay (library screening and IC50 determination)
Format: biochemical
Conditions: Figure 2B, neat/synthesized compounds; read-out: ClpP1P2 IC50
observed.property: IC50

                                   molecule  test_value
0  O=C(Oc1ccccc1)c1ccc(N2CCOCC2)c([N+](=O)[O-])c1 [GDI‐5756]    > 100 µM

Noted for O=C(Nc1ccc(Cl)cc1)c1ccc(N2CCOCC2)c([N+](=O)[O-])c1 [GDI‐5757] : its IC50 reads > 100 µM

The recorded IC50 for entry O=C(Oc1ccc(Cl)cc1)c1ccc(N2CCOCC2)c([N+](=O)[O-])c1 [GDI‐5755] equals ~2.1 µM

###

Biological target: Mtb ClpP1P2 (Mycobacterium tuberculosis, UniProt P9WPC3+P9WPC5)
Assay: Mtb ClpP1P2 peptidase assay (library screening and IC50 determination)
Format: biochemical
Settings: resynthesized compound, screening assay conditions, three replicates; read-out: IC50
observed.property: pIC50
# log scale: pIC50 equals minus log10 of the concentration in mol/L

What the record says about O=C(Oc1ccc(Cl)cc1)c1ccc(N2CCOCC2)c([N+](=O)[O-])c1 [GDI‐5755] : pIC50 is 5.62

###

Target: Mtb ClpP1P2 (Mycobacterium tuberculosis, UniProt P9WPC3+P9WPC5)
Assay: Mtb ClpP1P2 peptidase assay (library screening and IC50 determination)
Format: biochemical
Settings: enzyme pre‐incubated with inhibitor before adding substrate; decreased to nearly enzyme concentration; read-out: IC50 after prolonged pre‐incubation
pIC50: −log10 of the molar value.
observed.property: pIC50

Value of pIC50 reported for the molecule O=C(Oc1ccc(Cl)cc1)c1ccc(N2CCOCC2)c([N+](=O)[O-])c1 [GDI‐5755] is ~6.89
